Test system: ZEAMX (Corn, Field)
Experiment: Preemergence herbicidal evaluation
Type: in vivo, Zea mays
Details: preemergence, 0.1250 kg/ha, rated 4-5 weeks after treatment, 0-9 scale
PROPERTY LABEL: ZEAMX rating
Note: the reply should be a number with no unit written.

Q: Please look up its ZEAMX rating: CCOC(=O)CN1C(=O)C(CC(=O)OCCF)SC1=Nc1cc(-n2c(=O)cc(C(F)(F)F)n(C)c2=O)c(F)cc1Cl (stereo not shown)
Result: 0.0

Q: Please look up its ZEAMX rating: C=CCN1C(=O)C(CC(=O)OC(C)C(=O)OCC)SC1=Nc1cc(-n2c(=O)ccn(C)c2=O)c(F)cc1Cl (stereo not shown)
Result: 0.0

Q: Please look up its ZEAMX rating: CN1C(=O)C(CC(N)=O)SC1=Nc1cc(-n2c(=O)cc(C(F)(F)F)n(C)c2=O)c(F)cc1Cl (stereo not shown)
Result: 0.0

Q: Please look up its ZEAMX rating: CCS(=O)(=O)NC(=O)CC1SC(=Nc2cc(-n3c(=O)cc(C(F)(F)F)n(C)c3=O)c(F)cc2Cl)N(C)C1=O (stereo not shown)
Result: 0.0

====

Hi there, I'd appreciate the recorded Postemergence herbicidal rating GALAP for every entry that follows.
Tested on: GALAP (Galium)
Assay: Postemergence herbicidal evaluation
Type: in vivo, Galium aparine
Details: Rate 0.0158 kg/ha
Note: the reply should be a number with no unit written.

Q: Please look up its Postemergence herbicidal rating GALAP: CCOC(=O)CN1C(=O)C(CC(=O)OCc2ccccc2)OC1=Nc1cc(-n2c(=O)cc(C(F)(F)F)n(C)c2=O)c(F)cc1Cl (stereo not shown) [Compound 40]
Result: 1.0

Q: Please look up its Postemergence herbicidal rating GALAP: CCOP(=O)(CN1C(=O)CSC1=Nc1cc(-n2c(=O)cc(C(F)(F)F)n(C)c2=O)c(F)cc1Cl)OCC [Compound 35]
Result: 4.0

Q: Please look up its Postemergence herbicidal rating GALAP: Cn1c(C(F)(F)F)cc(=O)n(-c2cc(N=C3SCC(=O)N3[C@@H](Cc3ccccc3)C(=O)O)c(Cl)cc2F)c1=O [Compound 53]
Result: 3.0

Q: Please look up its Postemergence herbicidal rating GALAP: COC(=O)CCN1C(=O)CSC1=Nc1cc(-n2c(=O)cc(C(F)(F)F)n(C)c2=O)c(F)cc1Cl [Compound 28]
Result: 3.0

====

Test system: CYPIR (Rice Flatsedge)
Assay: Preemergence weed control under flooded paddy conditions
Assay type: in vivo, Cyperus iria
Conditions: 0.0313 kg/ha, rated 3-4 weeks after treatment
Hi there, I'd appreciate the recorded CYPIR herbicidal effect rating for every entry that follows.
Note: the reply should be a number with no unit written.

Q: Tell me reported CYPIR herbicidal effect rating for COC(=O)[C@H](Cc1ccccc1)N1C(=O)CS/C1=N/c1cc(-n2c(=O)cc(C(F)(F)F)n(C)c2=O)c(F)cc1Cl , tested with CYPIR (Rice Flatsedge).
Result: 6.0

Q: Tell me reported CYPIR herbicidal effect rating for CCOC(=O)CN1C(=O)C(CC(=O)NS(=O)(=O)CC)SC1=Nc1cc(-n2c(=O)cc(C(F)(F)F)n(C)c2=O)c(F)cc1Cl (centres unmarked) , tested with CYPIR (Rice Flatsedge).
Result: 4.0

Q: Tell me reported CYPIR herbicidal effect rating for CN1C(=O)C(CC(=O)NS(C)(=O)=O)SC1=Nc1cc(-n2c(=O)cc(C(F)(F)F)n(C)c2=O)c(F)cc1Cl (centres unmarked) , tested with CYPIR (Rice Flatsedge).
Result: 0.0

Q: Tell me reported CYPIR herbicidal effect rating for COCCOC(=O)CN1C(=O)CSC1=Nc1cc(-n2c(=O)cc(C(F)(F)F)n(C)c2=O)c(F)cc1Cl , tested with CYPIR (Rice Flatsedge).
Result: 0.0

Q: Tell me reported CYPIR herbicidal effect rating for COC(=O)CC1SC(=Nc2cc(-n3c(=O)cc(C(F)(F)F)n(C)c3=O)c(F)cc2Cl)N(C)C1=O (centres unmarked) , tested with CYPIR (Rice Flatsedge).
Result: 0.0

Q: Tell me reported CYPIR herbicidal effect rating for C=CCN1C(=O)C(CC(=O)NOC)SC1=Nc1cc(-n2c(=O)cc(C(F)(F)F)n(C)c2=O)c(F)cc1Cl (centres unmarked) , tested with CYPIR (Rice Flatsedge).
Result: 3.0

Q: Tell me reported CYPIR herbicidal effect rating for CCOC(=O)CN1C(=O)C(Cc2ccccc2OC(C)C(=O)O)S/C1=N/c1cc(-n2c(=O)cc(C(F)(F)F)n(C)c2=O)c(F)cc1Cl (centres unmarked) , tested with CYPIR (Rice Flatsedge).
Result: 4.5

Q: Tell me reported CYPIR herbicidal effect rating for CCS(=O)(=O)NC(=O)CC1SC(=Nc2cc(-n3c(=O)cc(C(F)(F)F)n(C)c3=O)c(F)cc2Cl)N(C)C1=O (centres unmarked) , tested with CYPIR (Rice Flatsedge).
Result: 5.0

====

System: TRZAWR (Wheat, Winter, cv Riband)
Assay: Postemergence herbicidal evaluation
Format: in vivo, Triticum aestivum
Details: Rate 0.0315 kg/ha
PROPERTY LABEL: Postemergence herbicidal rating TRZAWR

Q: Please look up its Postemergence herbicidal rating TRZAWR: CCOC(=O)CN1C(=O)C(CC(=O)OCc2ccccc2)OC1=Nc1cc(-n2c(=O)cc(C(F)(F)F)n(C)c2=O)c(F)cc1Cl (stereo not shown) [Compound 40]
Result: 4.0

Q: Please look up its Postemergence herbicidal rating TRZAWR: Cn1c(C(F)(F)F)cc(=O)n(-c2cc(/N=C3/SCC(=O)N3CC(=O)O)c(Cl)cc2F)c1=O [Compound 52]
Result: 3.0

Q: Please look up its Postemergence herbicidal rating TRZAWR: COC(=O)CCN1C(=O)CSC1=Nc1cc(-n2c(=O)cc(C(F)(F)F)n(C)c2=O)c(F)cc1Cl [Compound 28]
Result: 5.0

Q: Please look up its Postemergence herbicidal rating TRZAWR: CCOC(=O)CN1CCSC1=Nc1cc(-n2nc(C)n(C(F)F)c2=O)c(F)cc1Cl [Compound 36]
Result: 2.5

====

Test system: ECHCG (Barnyardgrass)
Test: Preemergence herbicidal evaluation
Type: in vivo, Echinochloa crus-galli
Conditions: rate 0.2500 kg/ha; rated 4-5 weeks after treatment
Hi there, I'd appreciate the recorded Preemergence herbicidal rating ECHCG for every entry that follows.

Q: Please look up its Preemergence herbicidal rating ECHCG: CCOC(=O)CN1CCSC1=Nc1cc(-n2nc(C)n(C(F)F)c2=O)c(F)cc1Cl
Result: 6.0

Q: Please look up its Preemergence herbicidal rating ECHCG: COC(=O)CCN1C(=O)CSC1=Nc1cc(-n2c(=O)cc(C(F)(F)F)n(C)c2=O)c(F)cc1Cl
Result: 9.0

Q: Please look up its Preemergence herbicidal rating ECHCG: CCOP(=O)(CN1C(=O)CSC1=Nc1cc(-n2c(=O)cc(C(F)(F)F)n(C)c2=O)c(F)cc1Cl)OCC
Result: 0.0

Q: Please look up its Preemergence herbicidal rating ECHCG: C=CCN1C(=O)C(CC(=O)OC(C)C)SC1=Nc1cc(-n2c(=O)cc(C(F)(F)F)n(C)c2=O)c(F)cc1Cl (centres unmarked)
Result: 3.0

Q: Please look up its Preemergence herbicidal rating ECHCG: CCOC(=O)CN1C(=O)C(CC(=O)OC(C)C)SC1=Nc1cc(-n2c(=O)cc(C(F)(F)F)n(C)c2=O)c(F)cc1Cl (centres unmarked)
Result: 0.5

====

Hi there, I'd appreciate the recorded Preemergence herbicidal rating ABUTH for every entry that follows.
Tested on: ABUTH (Velvetleaf)
Test: Preemergence herbicidal evaluation
Format: in vivo, Abutilon theophrasti
Conditions: rate 0.0625 kg/ha; rated 4-5 weeks after treatment
Note: the reply should be a number with no unit written.

Q: Please look up its Preemergence herbicidal rating ABUTH: Cn1c(C(F)(F)F)cc(=O)n(-c2cc(N=C3SCC(=O)N3CCC(=O)O)c(Cl)cc2F)c1=O
Result: 0.0

Q: Please look up its Preemergence herbicidal rating ABUTH: Cn1c(C(F)(F)F)cc(=O)n(-c2cc(N=C3SCC(=O)N3CC(=O)NS(C)(=O)=O)c(Cl)cc2F)c1=O
Result: 9.0

Q: Please look up its Preemergence herbicidal rating ABUTH: CCOC(=O)CN1C(=O)C(CC(=O)OC(C)C)SC1=Nc1cc(-n2c(=O)cc(C(F)(F)F)n(C)c2=O)c(F)cc1Cl (stereo not shown)
Result: 7.0

Q: Please look up its Preemergence herbicidal rating ABUTH: CCOC(=O)CN1C(=O)C(Cl)SC1=Nc1cc(-n2c(=O)cc(C(F)(F)F)n(C)c2=O)c(F)cc1Cl (stereo not shown)
Result: 5.0

Q: Please look up its Preemergence herbicidal rating ABUTH: Cn1c(C(F)(F)F)cc(=O)n(-c2cc(N=C3SCC(=O)N3CC(=O)OCC#N)c(Cl)cc2F)c1=O
Result: 9.0

Q: Please look up its Preemergence herbicidal rating ABUTH: COC(=O)[C@H](Cc1ccc([N+](=O)[O-])cc1)N1C(=O)CSC1=Nc1cc(-n2c(=O)cc(C(F)(F)F)n(C)c2=O)c(F)cc1Cl
Result: 0.0

Q: Please look up its Preemergence herbicidal rating ABUTH: C=CCN1C(=O)C(CC(=O)O)SC1=Nc1cc(-n2c(=O)cc(C(F)(F)F)n(C)c2=O)c(F)cc1Cl (stereo not shown)
Result: 9.0
